Parameter GI50: see the listing below.
- Tested on: HL-60
- TEST_NAME: NCI tumour cell line growth inhibition, 48 h
Activity calls are given as the source filed them. No stated cut-off is given here; in the data, active = GI50 up to about 1.1 µM and inactive = higher.

COMPOUND	GI50
CC(=O)OCC1OC(n2c3c(cc(C#N)c2=S)CCCCCC3)C(OC(C)=O)C(OC(C)=O)C1OC(C)=O (stereo not drawn)	36.2 µM (inactive)
CCOC(=O)C1=C(Nc2ccccc2)OC/C1=N\NC(=O)Cc1ccccc1	> 50 µM (inactive)
C#CCCCC(=C)C[C@@H]1OC(=O)[C@H](C)[C@@H]1O	> 100 µM (inactive)
NC1=NS(=O)(=O)Nc2nc(-c3ccc(Cl)cc3)c(-c3ccc(Cl)cc3)nc21	> 100 µM (inactive)
COc1cc(/C=C/C(=O)Oc2ccc(NC(C)=O)cc2)ccc1C(=O)OCc1ccccc1	> 72.3 µM (inactive)
CC1CC[C@@]2(OC1)OC1C[C@H]3[C@@H]4CC[C@H]5CC(OC6OC(CO)C(OC7OC(CO)C(O)C(O)C7OC7OC(CO)C(O)C(O)C7O)C(O)C6O)CCC5(C)[C@H]4CCC3(C)C1[C@@H]2C (stereo partly drawn)	4.97 µM (inactive)
CSc1nc(NC(=O)O)c(N(C(C)=O)C(=O)O)c(=O)n1C	> 100 µM (inactive)
CCCCN1C(=O)C2Cc3c([nH]c4ccccc34)C(c3cccc(O)c3)N2C1=O (stereo not drawn)	22.8 µM (inactive)

* * *

- Test system: EKVX
- TEST_NAME: NCI tumour cell line growth inhibition, 48 h
Active and inactive are the calls of the source. Cut-off read from the data, not from the text of the source: active = GI50 up to about 1.1 µM and inactive = higher.
OUTCOME_MEASURE: GI50

MOLECULE	RESULT
CC(=O)Nc1ccc(S(=O)(=O)NN(C)S(=O)(=O)c2ccc(C)cc2)cc1	> 100 µM (inactive)
Fc1cccc(F)c1C1SCc2nc3cc(Cl)ccc3n21 (stereo not given)	36.6 µM (inactive)
Fc1ccccc1C1SCc2nc3cc4ccccc4cc3n21 (stereo not given)	67.6 µM (inactive)
CCC1=CCN(c2cc(C)ccn2)OC1c1ccc(OC)cc1 (stereo not given)	40.6 µM (inactive)
NCCSCc1ccccc1Cl	34.3 µM (inactive)
O=C1N2CCc3c([nH]c4ccccc34)C23CC2CCCCC12S3 (stereo not given)	> 100 µM (inactive)
CCN(CC)CCCNC(=O)c1cc2cc(NC(=O)c3cc4cc([N+](=O)[O-])ccc4[nH]3)ccc2[nH]1	> 100 µM (inactive)
CCOC(=O)c1c(O)cn2c1[nH]c1cccc3cccc2c31	> 100 µM (inactive)
COc1ccccc1NCC(=O)Nn1c(C)nc2ccc(S(=O)(=O)Nc3ccccc3OC)cc2c1=O	> 100 µM (inactive)
O=C(NCCNCCCNC(=O)c1cc(-c2ccccc2)nc2ccccc12)c1cccc(OCc2ccccc2)c1OCc1ccccc1	1.69 µM (inactive)

* * *

- System: MOLT-4
- TEST_NAME: NCI tumour cell line growth inhibition, 48 h
Calls of active or inactive are those of the source. No stated cut-off is given here; in the data, active = GI50 up to about 1.1 µM and inactive = higher. Non-standard residues stand in square brackets, D forms with d. Residues, ends and D or L forms follow the SMILES beside them. ξ: configuration not given here. *: point of attachment. NMeF = CN[C@@H](Cc1ccccc1)C(=O)O; ξNMeV = CNC(C(=O)O)C(C)C; Boc = CC(C)(C)OC(=O)*; OBn = c1ccc(CO*)cc1
OUTCOME_MEASURE: GI50

COMPOUND	RESULT
Fc1cccc(F)c1C1SCc2nc3cc(Cl)ccc3n21 (stereo unspecified)	14 µM (inactive)
CC(C)C(C(=O)N1CCC[C@@H]1C(=O)OCc1ccccc1)N(C)C(=O)C(C(C)C)N(C)C(=O)[C@H](Cc1ccccc1)N(C)C(=O)[C@H](NC(=O)OC(C)(C)C)C(C)C (stereo partly specified) (Boc-[dV][NMeF][ξNMeV][ξNMeV][dP]-OBn)	7.94 µM (inactive)
CCCCCCCCCCCCC/C=C/[C@H]1[C@@H](C(=O)OC)N1[S+]([O-])c1ccc(C)cc1 (stereo partly specified)	87.5 µM (inactive)
Nc1c2ccccc2nc2ccc(C(=O)Nc3ccc(S(N)(=O)=O)cc3)cc12	> 100 µM (inactive)
CSc1c(C#N)c(N)nc2c(/N=N\c3ccc(Cl)cc3)c(N)nn12	2.44 µM (inactive)
O=c1c2cc(I)ccc2nc(-c2cccs2)n1-c1ccc(O)cc1	6.04 µM (inactive)
Brc1ccc2c(c1)-c1nc3c(cc1CC2)CCc1ccc(Br)cc1-3	42.4 µM (inactive)
CCN(CC)CC(C)(C)C(=O)/C=C/c1ccc(C)cc1	3.39 µM (inactive)
CCN1C(=O)/C(=C2\SC(c3ccccc3)(c3ccccc3)c3ccccc32)SC1=S	96.4 µM (inactive)
NCCSCc1ccccc1Cl	31 µM (inactive)
CN(CCN1C(=O)c2cccc3cccc(c23)C1=O)CCN1C(=O)c2cccc3cccc(c23)C1=O	7.73 µM (inactive)
Cc1ccccc1N/C(N)=N/C#N	> 100 µM (inactive)
CC(=O)c1cc(I)c(O)c2ncccc12	2.42 µM (inactive)
COc1ccc(/N=[N+](\[O-])c2ccc(OC)cc2)cc1	> 100 µM (inactive)
C/C=C1/C[C@@H](C)[C@@](C)(O)C(=O)OCC2=CC[N+]3([O-])CC[C@@H](OC1=O)[C@@H]23 (stereo partly specified) [SENECIONINE N-OXIDE]	> 100 µM (inactive)
O=C(O)Cc1cccc2c(=O)c3cccc([N+](=O)[O-])c3[nH]c12	> 100 µM (inactive)
O=S(=O)(c1ccc(Br)cc1)n1c2ccc(Br)cc2c2nc3ccccc3nc21	> 100 µM (inactive)
CC1(C)N=C(C2CCCN2C(=O)OCc2ccccc2)OC1=O (stereo unspecified)	> 100 µM (inactive)
COc1nc2ncc([C@@H](O)[C@H](O)CO)nc2c(=O)[nH]1	> 100 µM (inactive)
O=P(O)(OCC(O)O)OCC(O)O	> 100 µM (inactive)
NC(=O)OCC1=C(COC(N)=O)C(=O)c2c(O)ccc(O)c2C1=O	55.8 µM (inactive)
